# Target: PD-1/PD-L1 (Homo sapiens, UniProt Q9NZQ7)
# Sequence (Q9NZQ7 19-290): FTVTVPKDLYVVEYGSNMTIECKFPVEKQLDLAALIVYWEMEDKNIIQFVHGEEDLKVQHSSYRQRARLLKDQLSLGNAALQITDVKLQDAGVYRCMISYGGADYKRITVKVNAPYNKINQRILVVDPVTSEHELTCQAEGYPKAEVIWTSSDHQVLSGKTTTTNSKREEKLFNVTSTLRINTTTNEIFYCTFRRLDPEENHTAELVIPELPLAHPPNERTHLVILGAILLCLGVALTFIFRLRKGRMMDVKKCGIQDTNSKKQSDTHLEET
# Protocol Summary: PD-1/PD-L1 NFAT reporter assay (co-culture of aAPC-PD-L1 CHO cells and Jurkat cells overexpressing PD-1, NFAT luciferase)
# Condition Context: co-culture incubated for 6 hrs at 37° C.; luciferase under NFAT control
pEC50: −log10 of the molar value.
Measured Parameter: pEC50

Recorded pEC50, per entry:
Cc1c(COc2nc(OCc3cncc(C#N)c3)c(CN[C@@](C)(CO)C(=O)O)cc2Cl)cccc1-c1cccc(-c2ccc3c(c2)CNC(COC(=O)NCCO)C3)c1C (stereo partly drawn): 6.97
Cc1c(COc2cc(OCc3cncc(C#N)c3)c(CN[C@@](C)(CO)C(=O)O)cc2Cl)cccc1-c1cccc(-c2ccc3c(c2)CNCC3O)c1C (stereo partly drawn): 6.91

(I) Cc1c(COc2cc(OCc3cncc(C#N)c3)c(CNC[C@@H](O)CC(=O)O)cc2Cl)cccc1-c1cccc(-c2ccc3c(c2)CNCC3NC(=O)NC2CC2)c1C (stereo partly drawn)
(II) Cc1c(COc2cc(OCc3cncc(C#N)c3)c(CNC[C@@H](O)CC(=O)O)cc2Cl)cccc1-c1cccc(-c2ccc3c(c2)NC(=O)CNC3)c1C
(III) COc1nc(-c2cccc(-c3cccc(-c4nc5c(s4)CNCC5)c3Cl)c2Cl)ccc1CNCCO
## Task Put the items in sequence by pEC50, from largest down. # format: label list in the order the request specifies
## Result I, II, III

----------
# Target: PD-L1 (Homo sapiens)
# Construct: determine if they can specifically dimerize the extracellular domains of PD-L1
# Sequence (Q9NZQ7 19-238 limits assumed): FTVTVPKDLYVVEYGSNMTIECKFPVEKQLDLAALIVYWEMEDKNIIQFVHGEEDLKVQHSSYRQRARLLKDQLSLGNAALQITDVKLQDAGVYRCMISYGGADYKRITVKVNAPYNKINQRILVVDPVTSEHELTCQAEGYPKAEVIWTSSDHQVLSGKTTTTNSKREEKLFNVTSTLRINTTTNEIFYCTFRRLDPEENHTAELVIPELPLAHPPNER
# Sequence (Q9NZQ7 19-238 limits assumed): as above
# Protocol Summary: PD-L1/PD-L1 dimerization biochemical protein-protein interaction assay (ALPHA)
# Condition Context: 0.5 nM His tagged PD-L1 and 0.5 nM FLAG tagged PD-L1; compound induced dimerization; read-out: AC50 PDL1 Dimer 1 nM
Measured Parameter: AC50 (nM)

Recorded AC50, per entry:
Cc1c(COc2nc(OCc3cncc(C#N)c3)c(CN[C@@](C)(CO)C(=O)O)cc2Cl)cccc1-c1cccc(-c2ccc3c(c2)CNC(COC(=O)NCCO)C3)c1C (some centres unmarked) [Compound 25]: 53.5
C[C@](CO)(NCc1cc(Cl)c(OCc2cccc(-c3cccc(-c4ccc5c(c4)CNCC5)c3Cl)c2Cl)nc1OCc1cncc(C#N)c1)C(=O)O [Compound 29]: 31.5
COc1nc(O[C@H]2CCc3c(-c4cccc(-c5nc6c(s5)CCNC6)c4Cl)cccc32)c(C(F)(F)F)cc1CN1CC[C@@H](C(=O)O)C1 [Compound 2]: 23

(I) Cc1c(COc2cc(OCc3cncc(C#N)c3)c(CN[C@@](C)(CO)C(=O)O)cc2Cl)cccc1-c1cccc(-c2ccc3c(c2)CNCC3N)c1C (some centres unmarked) [Compound 18]
(II) COc1nc(-c2cccc(-c3cccc(-c4ccc5c(c4)OCCNC5)c3Cl)c2Cl)ccc1CNC[C@@H](O)CC(=O)O [Compound 6]
## Task Which has the smaller recorded AC50, I or II ? Give the label of your selection.
## Result I
(I: 54.9 nM, II: 301 nM)

(1) CNC(=O)NC1CNCc2cc(-c3cccc(-c4cccc(COc5cc(OCc6cncc(C#N)c6)c(CNC[C@@H](O)CC(=O)O)cc5Cl)c4C)c3C)ccc21 (some centres unmarked) [Compound 20]
(2) C[C@@](CO)(NCc1cc(Cl)c(OCc2cccc(-c3cccc(-c4ccc5c(c4)CNCC5)c3Cl)c2Cl)nc1OCc1cc(C#N)cc(C#N)c1)C(=O)O [Compound 28]
(3) COc1nc(O[C@H]2CCc3c(-c4cccc(-c5ccc6c(n5)CCNC6)c4Cl)cccc32)c(C(F)(F)F)cc1CN1CC[C@@H](C(=O)O)C1 [Compound 1]
## Task Put the items in sequence by AC50, from largest down. # format: label list in the order the request specifies
## Result 3, 2, 1
(3: 135 nM, 2: 39.7 nM, 1: 20.8 nM)
